meta.source: paper PMC4266361

Tested target: JNK3α1 (Homo sapiens)
Sequence (P53779 1-422 isoform P53779-2): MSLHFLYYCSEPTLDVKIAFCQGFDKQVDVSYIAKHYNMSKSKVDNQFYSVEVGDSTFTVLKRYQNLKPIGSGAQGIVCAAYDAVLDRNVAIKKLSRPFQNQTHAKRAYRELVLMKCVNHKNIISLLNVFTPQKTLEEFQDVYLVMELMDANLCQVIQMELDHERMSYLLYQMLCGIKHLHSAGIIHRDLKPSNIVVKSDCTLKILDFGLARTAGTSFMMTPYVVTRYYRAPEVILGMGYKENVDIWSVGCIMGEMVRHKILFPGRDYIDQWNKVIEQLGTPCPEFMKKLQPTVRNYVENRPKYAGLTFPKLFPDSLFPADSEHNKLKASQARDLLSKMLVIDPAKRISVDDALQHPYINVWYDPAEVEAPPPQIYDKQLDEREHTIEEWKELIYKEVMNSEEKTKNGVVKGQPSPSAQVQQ
Measurement description: biochemical

Compound: Cc1nnc(-c2cccc(-n3cc(NC(=O)Nc4ccccc4Cl)cn3)c2)o1 [21b]
JNK3 inhibitory activity: no inhibition
//
Compound: Cc1nnc(-c2cccc(-n3cc(NC(=O)Nc4ccccc4Cl)cn3)c2)[nH]1 [21a]
JNK3 inhibitory activity: no inhibition

----------
List of half-life values.
Measurement description: Microsomal stability, human liver microsomes
Applied conditions: Microsomal stability T1/2 Human

Compound: CN(C)CCn1cc(NC(=O)c2cccc(-n3cc(NC(=O)Nc4ccccc4Cl)cn3)c2)cn1 [26g]
half-life: 35 to 40 min

Consider the additional compound presented here.
Check the records and state half-life for CCN(CC)CCNC(=O)c1cccc(-n2cc(NC(=O)Nc3ccccc3Cl)cn2)c1 [26l]
35 to 40 min
